- test: In vivo biodistribution in mice
- Design: species or system normal CD-1 male mice
- details: iv, 120 min post injection
measure-name: Biodistribution: Skin
Provide a numeric answer, followed by its unit.

[
  {
    "molecule": "O=C([O-])CN(CCN(CC(=O)[O-])Cc1cc(CCC(=O)N[C@@H](CCC(=O)O)C(=O)O)ccc1[O-])Cc1cc(CCC(=O)NC(P(=O)(O)O)P(=O)(O)O)ccc1[O-].[68Ga+3] [[^68Ga]1f]",
    "value-reported": "0.09 ± 0.01 % dose/g"
  }
]

Now consider a different molecule.
In one line, give reported Biodistribution: Skin of the entry O=C([O-])CN(CCN(CC(=O)[O-])Cc1cc(CCC(=O)NC(P(=O)(O)O)P(=O)(O)O)ccc1[O-])Cc1cc(CCC(=O)NCCCCCC(=O)NCCCC[C@H](NC(=O)N[C@@H](CCC(=O)O)C(=O)O)C(=O)O)ccc1[O-].[68Ga+3] [[^68Ga]1g] .
0.29 ± 0.06 % dose/g
